assaySummary: Absorbance and fluorescence maximum wavelengths and quantum yields of the CyNA library
Assay type: physicochemical
assayContext: CyNA library
measureName: λem, fluorescence maximum wavelength (nm)
Answers are plain numbers, in nm.

Example entries begin here.
{"columns": ["compound", "λem, fluorescence maximum wavelength, nm"],
 "data": [
  ["CCCN1/C(=C/C=C2\\CCCC(/C=C/C3=[N+](CCC)c4ccccc4C3(C)C)=C2N(Cc2cc(OC)c(OC)c(OC)c2)C(C)=O)C(C)(C)c2ccccc21 [CyNA-356]", 820],
  ["CCCN1/C(=C/C=C2\\CCCC(/C=C/C3=[N+](CCC)c4ccccc4C3(C)C)=C2N(Cc2ccc(Cl)cc2)C(C)=O)C(C)(C)c2ccccc21 [CyNA-221]", 820],
  ["CCCN1/C(=C/C=C2\\CCCC(/C=C/C3=[N+](CCC)c4ccccc4C3(C)C)=C2N(CCc2ccccc2-c2ccccc2)C(C)=O)C(C)(C)c2ccccc21 [CyNA-599]", 819],
  ["CCCN1/C(=C/C=C2\\CCCC(/C=C/C3=[N+](CCC)c4ccccc4C3(C)C)=C2N(CCc2ccccn2)C(C)=O)C(C)(C)c2ccccc21.[I-] [CyNA-111]", 818]
]}

Then there is this compound:
Request: # λem, fluorescence maximum wavelength lookup, item CCCN1/C(=C/C=C2\CCCC(/C=C/C3=[N+](CCC)c4ccccc4C3(C)C)=C2N(CCC(C)C)C(C)=O)C(C)(C)c2ccccc21 [CyNA-442]
Response: 822

* * *

assaySummary: Absorbance and fluorescence maximum wavelengths and quantum yields of the CyNA library
Assay type: physicochemical
assayContext: in DMSO, Cardiogreen as standard
Answer each item with its documented φ, quantum yield.

Example entries begin here.
{"columns": ["compound", "φ, quantum yield"],
 "data": [
  ["CCCN1/C(=C/C=C2\\CCCC(/C=C/C3=[N+](CCC)c4ccccc4C3(C)C)=C2N(CCc2ccc(OC)cc2)C(C)=O)C(C)(C)c2ccccc21 [CyNA-395]", 0.07],
  ["CCCCCCCCCCN(C(C)=O)C1=C(/C=C/C2=[N+](CCC)c3ccccc3C2(C)C)CCC/C1=C\\C=C1\\N(CCC)c2ccccc2C1(C)C [CyNA-407]", 0.08]
]}

Then there is this compound:
Request: # φ, quantum yield lookup, item CCCN1/C(=C/C=C2\CCCC(/C=C/C3=[N+](CCC)c4ccccc4C3(C)C)=C2N(Cc2ccccn2)C(C)=O)C(C)(C)c2ccccc21 [CyNA-401]
Response: 0.10

* * *

assaySummary: Primary screening of photostability of the CyNA library (time-course fluorescence, 8 h)
Type: physicochemical
assayContext: 10 μM in HEPES 100 mM pH 7.4, 2% DMSO
measureName: max RFU, maximum relative fluorescence units

Example entries begin here.
{"columns": ["compound", "endpointValue"],
 "data": [
  ["CCCN1/C(=C/C=C2\\CCCC(/C=C/C3=[N+](CCC)c4ccccc4C3(C)C)=C2N(CCCOC(C)C)C(C)=O)C(C)(C)c2ccccc21 [CyNA-274]", 1209.5],
  ["CCCN1/C(=C/C=C2\\CCCC(/C=C/C3=[N+](CCC)c4ccccc4C3(C)C)=C2N(CCc2ccc(OC)c(OC)c2)C(C)=O)C(C)(C)c2ccccc21 [CyNA-266]", 541.8]
]}

Go through the list and state max RFU, maximum relative fluorescence units for each entry.
1. CCCN1/C(=C/C=C2\CCCC(/C=C/C3=[N+](CCC)c4ccccc4C3(C)C)=C2N(Cc2cccc(OC)c2OC)C(C)=O)C(C)(C)c2ccccc21 [CyNA-124]
2. CCCN1/C(=C/C=C2\CCCC(/C=C/C3=[N+](CCC)c4ccccc4C3(C)C)=C2N(Cc2ccc(OC)cc2OC)C(C)=O)C(C)(C)c2ccccc21 [CyNA-181]
3. CCCN1/C(=C/C=C2\CCCC(/C=C/C3=[N+](CCC)c4ccccc4C3(C)C)=C2N(CCc2ccccn2)C(C)=O)C(C)(C)c2ccccc21.[I-] [CyNA-111]
4. CCCCCCCCCCCCCN(C(C)=O)C1=C(/C=C/C2=[N+](CCC)c3ccccc3C2(C)C)CCC/C1=C\C=C1\N(CCC)c2ccccc2C1(C)C [CyNA-55]
5. CCCN1/C(=C/C=C2\CCCC(/C=C/C3=[N+](CCC)c4ccccc4C3(C)C)=C2N(CCC(c2ccccc2)c2ccccc2)C(C)=O)C(C)(C)c2ccccc21 [CyNA-100]

Response:
1334.2
996.8
565.6
162.3
333.8

Go through the list and state max RFU, maximum relative fluorescence units for each entry.
1. CCCN1/C(=C/C=C2\CCCC(/C=C/C3=[N+](CCC)c4ccccc4C3(C)C)=C2N(CC(C)C)C(C)=O)C(C)(C)c2ccccc21 [CyNA-487]
2. CCCN1/C(=C/C=C2\CCCC(/C=C/C3=[N+](CCC)c4ccccc4C3(C)C)=C2N(Cc2ccc(Cl)cc2)C(C)=O)C(C)(C)c2ccccc21 [CyNA-221]
3. CCCN1/C(=C/C=C2\CCCC(/C=C/C3=[N+](CCC)c4ccccc4C3(C)C)=C2N(CCc2ccccc2-c2ccccc2)C(C)=O)C(C)(C)c2ccccc21 [CyNA-599]
4. CCCCN(C(C)=O)C1=C(/C=C/C2=[N+](CCC)c3ccccc3C2(C)C)CCC/C1=C\C=C1\N(CCC)c2ccccc2C1(C)C [CyNA-373]

Response:
1: 45.3; 2: 382.6; 3: 105.9; 4: 567.2

* * *

Answer each item with its documented λem, fluorescence maximum wavelength.
assaySummary: Absorbance and fluorescence maximum wavelengths and quantum yields of the CyNA library
Type: physicochemical
assayContext: CyNA library
Answer with the figure and its unit, nothing else.

Example entries begin here.
{"columns": ["compound", "endpointValue"],
 "data": [
  ["CCCN(C(C)=O)C1=C(/C=C/C2=[N+](CCC)c3ccccc3C2(C)C)CCC/C1=C\\C=C1\\N(CCC)c2ccccc2C1(C)C [CyNA-95]", "818 nm"],
  ["CCCN1/C(=C/C=C2\\CCCC(/C=C/C3=[N+](CCC)c4ccccc4C3(C)C)=C2N(Cc2cccc(Cl)c2)C(C)=O)C(C)(C)c2ccccc21 [CyNA-403]", "819 nm"]
]}

Then there is this compound:
Request: # λem, fluorescence maximum wavelength lookup, item CCCN1/C(=C/C=C2\CCCC(/C=C/C3=[N+](CCC)c4ccccc4C3(C)C)=C2N(C(C)=O)C2CCCCCCC2)C(C)(C)c2ccccc21 [CyNA-219]
Response: 822 nm

* * *

assaySummary: Absorbance and fluorescence maximum wavelengths and quantum yields of the CyNA library
Type: physicochemical
assayContext: CyNA library
Answer each item with its documented λabs, absorbance maximum wavelength.
Give bare numbers, in nm.

Example entries begin here.
{"columns": ["molecule", "measureName", "endpointValue"],
 "data": [
  ["CCCN1/C(=C/C=C2\\CCCC(/C=C/C3=[N+](CCC)c4ccccc4C3(C)C)=C2N(Cc2ccc(F)cc2)C(C)=O)C(C)(C)c2ccccc21", "λabs, absorbance maximum wavelength", 802],
  ["CCCN1/C(=C/C=C2\\CCCC(/C=C/C3=[N+](CCC)c4ccccc4C3(C)C)=C2N(Cc2ccc(OC)cc2OC)C(C)=O)C(C)(C)c2ccccc21 [CyNA-181]", "λabs, absorbance maximum wavelength", 805],
  ["CCCN1/C(=C/C=C2\\CCCC(/C=C/C3=[N+](CCC)c4ccccc4C3(C)C)=C2N(Cc2ccc(OC)cc2OC)C(C)=O)C(C)(C)c2ccccc21 [CyNA-358]", "λabs, absorbance maximum wavelength", 805]
]}

Go through the list and state λabs, absorbance maximum wavelength for each entry.
1. CCCN1/C(=C/C=C2\CCCC(/C=C/C3=[N+](CCC)c4ccccc4C3(C)C)=C2N(Cc2ccccc2Br)C(C)=O)C(C)(C)c2ccccc21
2. CCCN(C(C)=O)C1=C(/C=C/C2=[N+](CCC)c3ccccc3C2(C)C)CCC/C1=C\C=C1\N(CCC)c2ccccc2C1(C)C

Response:
1: 806; 2: 806

Go through the list and state λabs, absorbance maximum wavelength for each entry.
1. CCCN1/C(=C/C=C2\CCCC(/C=C/C3=[N+](CCC)c4ccccc4C3(C)C)=C2N(Cc2cc(OC)c(OC)c(OC)c2)C(C)=O)C(C)(C)c2ccccc21
2. CCCN1/C(=C/C=C2\CCCC(/C=C/C3=[N+](CCC)c4ccccc4C3(C)C)=C2N(CCc2ccc(CC)cc2)C(C)=O)C(C)(C)c2ccccc21

Response:
[804, 803]

* * *

assaySummary: Primary screen of SERS intensities of CyNAMLA-functionalized AuNPs (compact Raman scanner)
Type: physicochemical
assayContext: SERS spectra of CyNAMLA-functionalized AuNPs; excitation at 785 nm, laser power 60 mW
Answer each item with its documented Raman intensity.
Give bare numbers.

Example entries begin here.
{"columns": ["compound", "Raman intensity"],
 "data": [
  ["CCCN1/C(=C/C=C2\\CCCC(/C=C/C3=[N+](CCCNC(=O)CCCCC4CCSS4)c4ccccc4C3(C)C)=C2N(Cc2cccc(OC)c2OC)C(C)=O)C(C)(C)c2ccccc21.O=C([O-])C(F)(F)F (stereo not drawn) [CyNAMLA-124]", 2201],
  ["CCCN1/C(=C/C=C2\\CCCC(/C=C/C3=[N+](CCCNC(=O)CCCCC4CCSS4)c4ccccc4C3(C)C)=C2N(C(C)=O)C(C)CCc2ccccc2)C(C)(C)c2ccccc21.O=C([O-])C(F)(F)F (stereo not drawn) [CyNAMLA-275]", 1408],
  ["CCCN1/C(=C/C=C2\\CCCC(/C=C/C3=[N+](CCCNC(=O)CCCCC4CCSS4)c4ccccc4C3(C)C)=C2N(Cc2ccccn2)C(C)=O)C(C)(C)c2ccccc21.O=C([O-])C(F)(F)F (stereo not drawn) [CyNAMLA-401]", 2920]
]}

Go through the list and state Raman intensity for each entry.
1. CCCN1/C(=C/C=C2\CCCC(/C=C/C3=[N+](CCCNC(=O)CCCCC4CCSS4)c4ccccc4C3(C)C)=C2N(Cc2c(OC)cc(OC)cc2OC)C(C)=O)C(C)(C)c2ccccc21.O=C([O-])C(F)(F)F (stereo not drawn) [CyNAMLA-336]
2. CCCN1/C(=C/C=C2\CCCC(/C=C/C3=[N+](CCCNC(=O)CCCCC4CCSS4)c4ccccc4C3(C)C)=C2N(Cc2ccccc2C)C(C)=O)C(C)(C)c2ccccc21.O=C([O-])C(F)(F)F (stereo not drawn) [CyNAMLA-101]
3. CCCN1/C(=C/C=C2\CCCC(/C=C/C3=[N+](CCCNC(=O)CCCCC4CCSS4)c4ccccc4C3(C)C)=C2N(Cc2ccc(F)cc2)C(C)=O)C(C)(C)c2ccccc21.O=C([O-])C(F)(F)F (stereo not drawn) [CyNAMLA-218]
4. CCCN1/C(=C/C=C2\CCCC(/C=C/C3=[N+](CCCNC(=O)CCCCC4CCSS4)c4ccccc4C3(C)C)=C2N(C(C)=O)C2CCCC2)C(C)(C)c2ccccc21.O=C([O-])C(F)(F)F (stereo not drawn) [CyNAMLA-180]
5. CCCN1/C(=C/C=C2\CCCC(/C=C/C3=[N+](CCCNC(=O)CCCCC4CCSS4)c4ccccc4C3(C)C)=C2N(Cc2ccccc2OCC)C(C)=O)C(C)(C)c2ccccc21.O=C([O-])C(F)(F)F (stereo not drawn) [CyNAMLA-103]

Response:
2548
2102
1922
8236
6424

Request: # Raman intensity lookup, item CCCN1/C(=C/C=C2\CCCC(/C=C/C3=[N+](CCCNC(=O)CCCCC4CCSS4)c4ccccc4C3(C)C)=C2N(CCCOC(C)C)C(C)=O)C(C)(C)c2ccccc21.O=C([O-])C(F)(F)F (stereo not drawn) [CyNAMLA-274]
Response: 6417

The origin of these recorded values is patent US9201014B2.
